# protocol_notes: Half-life in ICR mouse at 2 mg/kg, iv measured by LC-MS/MS analysis
# Assay type: ADME, organism-based
# cond: in vivo
recorded_endpoint: half-life (h)

{"molecule": "CC(C)(c1ccc(OCC2CCN(CC3CN(C4CCN(c5cccc6c5C(=O)N(C5CCC(=O)NC5=O)C6=O)CC4)C3)CC2)cc1)c1ccc(OC[C@H](O)CCl)cc1 (stereo partly drawn)", "half-life / h": 13.6}

A = CC(C)(c1ccc(OCC2CCN(C(=O)CCCNc3ccc4c(c3)C(=O)N(C3CCC(=O)NC3=O)C4=O)CC2)cc1)c1ccc(OC[C@H](O)CCl)cc1 (stereo partly drawn)
B = CC(C)(c1ccc(OCC2CCN(CC3CCN(c4ccc5c(c4)C(=O)N(C4CCC(=O)NC4=O)C5=O)CC3)CC2)cc1)c1ccc(OC[C@H](O)CCl)cc1 (stereo partly drawn)
Prompt: Of the pair A and B , name the member with the lesser recorded half-life. Which one? Tell me its label.
Response: A
(A: 0.5 h, B: 8.2 h)

====

# protocol_notes: Cytotoxicity against human PC-3 cells assessed as inhibition of cell growth incubated for 6 days
# Format: toxicity, cell-based
recorded_endpoint: IC50 at 6 days (nM)
Report the value in nM with no unit label.

{"compound": "CC(C)(c1ccc(OCC2CCN(CC3CCN(C4CCN(c5ccc6c(c5)C(=O)N(C5CCC(=O)NC5=O)C6=O)CC4)CC3)CC2)cc1)c1ccc(OC[C@H](O)CCl)cc1 (some centres not stated)", "IC50 at 6 days (nM)": 1030}

# evaluate next
Prompt: Recorded IC50 at 6 days of CC(C)(c1ccc(OCC2CCN(CC3CCN(CC4CCN(c5ccc6c(c5)C(=O)N(C5CCC(=O)NC5=O)C6=O)CC4)CC3)CC2)cc1)c1ccc(OC[C@H](O)CCl)cc1 (some centres not stated) , please.
Response: 1370

====

# protocol_notes: Metabolic stability in human liver microsomes assessed as parent compound remaining at 2 uM preincubated for 10 mins in the presence of NADPH followed by compound addition and measured after 60 mins by LC-MS/MS analysis
# Type: ADME, Microsome
# cond: read-out: Stability
recorded_endpoint: remaining at 1 h, 2 µM (%)
Report the value in % with no unit label.

Prompt: Recorded remaining at 1 h, 2 µM of CC(C)(c1ccc(OCC2CCN(CC3CCN(c4ccc5c(c4)C(=O)N(C4CCC(=O)NC4=O)C5=O)CC3)CC2)cc1)c1ccc(OC[C@H](O)CCl)cc1 (stereo partly specified) , please.
Response: 80.9

====

# protocol_notes: Oral bioavailability in ICR mouse at 10 mg/kg measured by LC-MS/MS analysis
# Format: ADME, organism-based
# cond: in vivo
recorded_endpoint: bioavailability (%)

1 = CC(C)(c1ccc(OCC2CCN(C(=O)CCCNc3ccc4c(c3)C(=O)N(C3CCC(=O)NC3=O)C4=O)CC2)cc1)c1ccc(OC[C@H](O)CCl)cc1 (stereo partly drawn)
2 = CC(C)(c1ccc(OCC2CCN(CC3CCN(c4ccc5c(c4)C(=O)N(C4CCC(=O)NC4=O)C5=O)CC3)CC2)cc1)c1ccc(OC[C@H](O)CCl)cc1 (stereo partly drawn)
3 = CC(C)(c1ccc(OCC2CCN(CC3CN(C4CCN(c5cccc6c5C(=O)N(C5CCC(=O)NC5=O)C6=O)CC4)C3)CC2)cc1)c1ccc(OC[C@H](O)CCl)cc1 (stereo partly drawn)
Prompt: List the items above again, this time ordered by increasing bioavailability. Show the ranking through the labels, in the order asked for.
Response: 1, 3, 2
(1: 7.8%, 3: 12.3%, 2: 40.5%)

====

# protocol_notes: Half-life in beagle dog at 5 mg/kg, po measured by LC-MS/MS analysis
# Format: ADME, organism-based, Canis lupus familiaris
# cond: in vivo
recorded_endpoint: half-life (h)
Report the value in h with no unit label.

Prompt: Recorded half-life of CC(C)(c1ccc(OCC2CCN(CC3CCN(c4ccc5c(c4)C(=O)N(C4CCC(=O)NC4=O)C5=O)CC3)CC2)cc1)c1ccc(OC[C@H](O)CCl)cc1 (stereo partly specified) , please.
Response: 31.2

====

# protocol_notes: Stability in mouse plasma assessed as parent compound remaining measured immediately by LC-MS/MS analysis
# Format: ADME, cell-free
# cond: read-out: Stability
recorded_endpoint: remaining at 0 min (%)
Report the value in % with no unit label.

Prompt: Recorded remaining at 0 min of CC(C)(c1ccc(OCC2CCN(CC3CCN(c4ccc5c(c4)C(=O)N(C4CCC(=O)NC4=O)C5=O)CC3)CC2)cc1)c1ccc(OC[C@H](O)CCl)cc1 (stereo partly specified) , please.
Response: 100

====

# protocol_notes: Stability in mouse plasma assessed as parent compound remaining measured after 45 mins by LC-MS/MS analysis
# Assay type: ADME, cell-free
# cond: read-out: Stability
recorded_endpoint: remaining at 0.75 h (%)
Report the value in % with no unit label.

Prompt: Recorded remaining at 0.75 h of CC(C)(c1ccc(OCC2CCN(CC3CCN(c4ccc5c(c4)C(=O)N(C4CCC(=O)NC4=O)C5=O)CC3)CC2)cc1)c1ccc(OC[C@H](O)CCl)cc1 (stereo partly specified) , please.
Response: 102

====

# protocol_notes: Stability in human plasma assessed as parent compound remaining measured immediately by LC-MS/MS analysis
# Type: ADME, cell-free
# cond: read-out: Stability
recorded_endpoint: remaining at 0 min (%)
Report the value in % with no unit label.

Prompt: Recorded remaining at 0 min of CC(C)(c1ccc(OCC2CCN(CC3CCN(c4ccc5c(c4)C(=O)N(C4CCC(=O)NC4=O)C5=O)CC3)CC2)cc1)c1ccc(OC[C@H](O)CCl)cc1 (stereo partly specified) , please.
Response: 100

====

# System: VCaP
# protocol_notes: Antiproliferative activity against human VCaP cells assessed as reduction in cell viability incubated for 6 days by CCK-8 assay
# Assay type: functional, cell-based
# cond: 144 h
recorded_endpoint: pIC50
Please express pIC50 as -log10 of the molar concentration.

Prompt: Recorded pIC50 of CC(C)(c1ccc(OCC2CCN(CC3CCN(c4ccc5c(c4)C(=O)N(C4CCC(=O)NC4=O)C5=O)CC3)CC2)cc1)c1ccc(OC[C@H](O)CCl)cc1 (some centres not stated) , please.
Response: 5.25

====

# protocol_notes: Stability in human plasma assessed as parent compound remaining measured after 45 mins by LC-MS/MS analysis
# Format: ADME, cell-free
# cond: read-out: Stability
recorded_endpoint: remaining at 0.75 h (%)
Report the value in % with no unit label.

Prompt: Recorded remaining at 0.75 h of CC(C)(c1ccc(OCC2CCN(CC3CCN(c4ccc5c(c4)C(=O)N(C4CCC(=O)NC4=O)C5=O)CC3)CC2)cc1)c1ccc(OC[C@H](O)CCl)cc1 (stereo partly specified) , please.
Response: 93.9

====

# protocol_notes: Metabolic stability in human liver microsomes assessed as intrinsic clearance at 2 uM preincubated for 10 mins in the presence of NADPH followed by compound addition and measured per mg protein after 60 mins by LC-MS/MS analysis
# Format: ADME, Microsome
# cond: read-out: CLH
recorded_endpoint: microsomal CLint at 2 µM (µL/min/mg)
Report the value in µL/min/mg with no unit label.

Prompt: Recorded microsomal CLint at 2 µM of CC(C)(c1ccc(OCC2CCN(CC3CCN(c4ccc5c(c4)C(=O)N(C4CCC(=O)NC4=O)C5=O)CC3)CC2)cc1)c1ccc(OC[C@H](O)CCl)cc1 (stereo partly specified) , please.
Response: 7.4

====

# protocol_notes: Stability in human plasma assessed as parent compound remaining measured after 60 mins by LC-MS/MS analysis
# Assay type: ADME, cell-free
# cond: read-out: Stability
recorded_endpoint: remaining at 1 h (%)
Report the value in % with no unit label.

Prompt: Recorded remaining at 1 h of CC(C)(c1ccc(OCC2CCN(CC3CCN(c4ccc5c(c4)C(=O)N(C4CCC(=O)NC4=O)C5=O)CC3)CC2)cc1)c1ccc(OC[C@H](O)CCl)cc1 (stereo partly specified) , please.
Response: 91.9

====

# protocol_notes: Stability in human plasma assessed as parent compound remaining measured after 15 mins by LC-MS/MS analysis
# Format: ADME, cell-free
# cond: read-out: Stability
recorded_endpoint: remaining at 0.25 h (%)
Report the value in % with no unit label.

Prompt: Recorded remaining at 0.25 h of CC(C)(c1ccc(OCC2CCN(CC3CCN(c4ccc5c(c4)C(=O)N(C4CCC(=O)NC4=O)C5=O)CC3)CC2)cc1)c1ccc(OC[C@H](O)CCl)cc1 (stereo partly specified) , please.
Response: 92.2

====

# protocol_notes: Metabolic stability in mouse liver microsomes assessed as half-life at 2 uM preincubated for 10 mins in the presence of NADPH followed by compound addition and measured after 60 mins by LC-MS/MS analysis
# Type: ADME, Microsome
recorded_endpoint: half-life at 2 µM (h)
Report the value in h with no unit label.

Prompt: Recorded half-life at 2 µM of CC(C)(c1ccc(OCC2CCN(CC3CCN(c4ccc5c(c4)C(=O)N(C4CCC(=O)NC4=O)C5=O)CC3)CC2)cc1)c1ccc(OC[C@H](O)CCl)cc1 (stereo partly specified) , please.
Response: 3.12
